Origin of measurements: paper PMC11857663

system: RPMI-8402 (T-cell acute lymphocytic leukemia, T-ALL)
The following compounds are listed with their measured GI50 values.
PARAMETER_MEASURED: GI50 (µM)

COMPOUND: C=C1C[C@@]23C[C@@H]1CC[C@]2(O)[C@@]1(C)[C@@H](O)CCC(C)(C)[C@@H]1[C@H](O)C3
OUTPUT_UNIT: µM
READOUT_QUALIFIER: >
READOUT_NUMBER: 30

COMPOUND: C=C1C[C@@]23C[C@@H]1CC[C@]2(O)[C@@]1(C)CCCC(C)(C)[C@@H]1[C@H](O)C3
OUTPUT_UNIT: µM
READOUT_QUALIFIER: =
READOUT_NUMBER: 11.1

COMPOUND: C=C1C2CCC3(O)C4(C)CCCC(C)(CO)C4C(O)CC3(C2)C1O (stereo not drawn)
OUTPUT_UNIT: µM
READOUT_QUALIFIER: =
READOUT_NUMBER: 8.51

COMPOUND: COc1cccc2c1C(=O)c1c(O)c3c(c(O)c1C2=O)C[C@@](O)(C(=O)CO)C[C@@H]3O[C@H]1C[C@H](N)[C@H](O)[C@H](C)O1 [Doxorubicin, reference compound]
OUTPUT_UNIT: µM
READOUT_QUALIFIER: =
READOUT_NUMBER: 0.035

COMPOUND: C=C1C[C@@]23C[C@@H]1CC[C@]2(O)[C@@]1(C)CCC[C@@](C)(CO)[C@@H]1[C@H](O)C3
OUTPUT_UNIT: µM
READOUT_QUALIFIER: >
READOUT_NUMBER: 30

COMPOUND: C=C1C[C@@]23C[C@@H]1CC[C@]2(O)[C@@]1(C)CC[C@H](O)C(C)(C)[C@@H]1[C@H](O)C3
OUTPUT_UNIT: µM
READOUT_QUALIFIER: >
READOUT_NUMBER: 30
